- ASSAYED SYSTEM: T1, human complement factor H (human, UniProt P08603 19-1231)
- T1 construct: also called human fH; fH
- T1 sequence (P08603 19-1231 limits assumed): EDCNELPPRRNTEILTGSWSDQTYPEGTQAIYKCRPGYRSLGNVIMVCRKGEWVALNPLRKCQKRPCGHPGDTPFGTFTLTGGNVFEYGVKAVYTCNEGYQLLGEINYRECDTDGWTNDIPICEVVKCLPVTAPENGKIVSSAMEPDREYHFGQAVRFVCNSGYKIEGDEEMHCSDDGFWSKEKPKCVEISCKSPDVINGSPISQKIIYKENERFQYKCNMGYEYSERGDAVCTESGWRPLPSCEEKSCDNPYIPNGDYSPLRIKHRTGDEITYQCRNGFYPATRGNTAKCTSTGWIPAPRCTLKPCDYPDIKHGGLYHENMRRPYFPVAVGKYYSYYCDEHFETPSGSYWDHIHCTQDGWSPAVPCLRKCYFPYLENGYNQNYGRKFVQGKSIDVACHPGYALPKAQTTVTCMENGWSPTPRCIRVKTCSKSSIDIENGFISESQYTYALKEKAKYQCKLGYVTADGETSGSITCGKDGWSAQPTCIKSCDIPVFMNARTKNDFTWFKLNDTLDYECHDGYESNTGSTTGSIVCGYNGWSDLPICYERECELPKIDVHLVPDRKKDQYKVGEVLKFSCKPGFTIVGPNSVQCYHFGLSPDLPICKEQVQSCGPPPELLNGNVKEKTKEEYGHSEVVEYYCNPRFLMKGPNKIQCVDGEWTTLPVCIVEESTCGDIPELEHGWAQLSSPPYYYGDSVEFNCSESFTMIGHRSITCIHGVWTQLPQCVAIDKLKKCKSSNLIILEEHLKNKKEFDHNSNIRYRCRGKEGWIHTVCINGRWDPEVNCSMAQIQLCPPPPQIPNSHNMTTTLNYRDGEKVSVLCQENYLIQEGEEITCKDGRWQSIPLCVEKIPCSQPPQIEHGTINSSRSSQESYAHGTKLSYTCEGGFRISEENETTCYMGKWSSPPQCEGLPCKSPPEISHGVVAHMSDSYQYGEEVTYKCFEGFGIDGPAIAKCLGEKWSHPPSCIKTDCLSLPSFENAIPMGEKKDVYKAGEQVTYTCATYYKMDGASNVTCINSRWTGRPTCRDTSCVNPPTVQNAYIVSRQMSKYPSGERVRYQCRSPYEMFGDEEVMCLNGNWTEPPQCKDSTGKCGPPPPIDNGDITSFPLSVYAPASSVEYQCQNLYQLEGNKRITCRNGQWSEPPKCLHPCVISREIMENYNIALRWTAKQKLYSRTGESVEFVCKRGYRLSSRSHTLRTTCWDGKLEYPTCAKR
- ASSAY EXPLANATION: ELISA, vs respective wildtype fHbp
READOUT NAME: Fold-Decrease in fH binding (fold)

>>> assay_result("fHbp ID 77 K113A mutant (other) CSSGGGGVAADIGARLADALTAPLDHKDKSLQSLTLDQSVRKNEKLKLAAQGAEKTYGNGDSLNTGKLKNDKVSRFDFIRQIEVDGQLITLESGEFQIYKQDHSAVVALQIEAINNPDKIDSLINQRSFLVSGLGGEHTAFNQLPDGKAEYHGKAFSSDDAGGKLTYTIDFAAKQGHGKIEHLKTPEQNVELAAAELKADEKSHAVILGDTRYGSEEKGTYHLALFGDRAQEIAGSATVKIGEKVHEIGIAGKQ")
0
>>> assay_result("fHbp ID 15, wild-type (natural chimera, modular group IV) (other, Recombinant; also called Pep 15 WT; peptide 15) CSSGGGGSGGGGVAADIGAGLADALTAPLDHKDKGLKSLTLEDSISQNGTLTLSAQGAERTFKAGDKDNSLNTGKLKNDKISRFDFIRQIEVDGQLITLESGEFQVYKQSHSALTALQTEQVQDSEHSGKMVAKRQFRIGDIVGEHTSFGKLPKDVMATYRGTAFGSDDAGGKLTYTIDFAAKQGHGKIEHLKSPELNVDLAAADIKPDEKHHAVISGSVLYNQAEKGSYSLGIFGGQAQEVAGSAEVETANGIRHIGLAAKQ")
0
>>> assay_result("fHbp ID 77 D121A mutant (other) CSSGGGGVAADIGARLADALTAPLDHKDKSLQSLTLDQSVRKNEKLKLAAQGAEKTYGNGDSLNTGKLKNDKVSRFDFIRQIEVDGQLITLESGEFQIYKQDHSAVVALQIEKINNPDKIASLINQRSFLVSGLGGEHTAFNQLPDGKAEYHGKAFSSDDAGGKLTYTIDFAAKQGHGKIEHLKTPEQNVELAAAELKADEKSHAVILGDTRYGSEEKGTYHLALFGDRAQEIAGSATVKIGEKVHEIGIAGKQ")
0
